Can you tell me ILS at 100 mg/kg/day for the items I'm about to list?
# Test system: P388
# Assay Remarks: Percentage increase in life span of tumor bearing animals compared to non treated, tumor-bearing controls when treated at the optimal dose of 100 mg/kg/day intraperitoneally
# Format: functional
# Run Parameters: Mus musculus, P388, ip; route intraperitoneal
Numbers only, in %.

Example entries and their recorded answers appear below.
Substance Smiles | Tested System | ILS at 100 mg/kg/day (%)
CN(C)CCNC(=O)c1cc(Cl)cc2cc3ccccc3nc12.Cl.Cl | P388 | 62
COc1cccc2nc3c(C(=O)NCCN(C)C)cccc3cc12.Cl | P388 | 128
COc1cc(C(=O)NCCN(C)C)c2nc3ccccc3cc2c1.Cl.Cl | P388 | 99
CN(C)CCCCNC(=O)c1cccc2cc3ccccc3nc12.Cl | P388 | 143
CN(C)CCNC(=O)c1ccc(Cl)c2cc3ccccc3nc12.Cl.Cl | P388 | 110

Hey, can you go through the list below and give me ILS at 100 mg/kg/day for every item?
1. CN(C)CCNC(=O)c1cccc2cc3cc(Cl)ccc3nc12.Cl.Cl
2. Cc1cc(C(=O)NCCN(C)C)c2nc3ccccc3cc2c1.Cl.Cl
3. Cc1ccc(C(=O)NCCN(C)C)c2nc3ccccc3cc12.Cl.Cl
4. Cc1ccc2nc3c(C(=O)NCCN(C)C)cccc3cc2c1.Cl.Cl

Reply text:
1: 106; 2: 120; 3: 71; 4: 68

----------
Can you tell me pKa for the items I'm about to list?
# Assay Remarks: Base strength is expressed as pKa, determined in water at 25 degrees Centigrade by spectrophotometric method.
# Assay type: physicochemical
One number for each entry.

Substance Smiles | pKa
CN(C)CCNC(=O)c1ccc2cc3ccccc3nc2c1.Cl.Cl | 3.94
COc1ccc(C(=O)NCCN(C)C)c2nc3ccccc3cc12.Cl.Cl | 3.81
CN(C)CCNC(=O)c1cccc2nc3ccccc3cc12.Cl.Cl | 4.24
CN(C)CCNC(=O)c1cccc2cc3ccccc3nc12.Cl.Cl | 3.54
COc1cc(C(=O)NCCN(C)C)c2nc3ccccc3cc2c1.Cl.Cl | 3.34

Inquiry: What value of pKa has been reported for the following compound? COc1ccc2cc3cccc(C(=O)NCCN(C)C)c3nc2c1.Cl.Cl
Reply text: 4.59

Value source: ChEMBL document CHEMBL1123878
